Recorded CC50 for the following compounds
- System: MB200 cells
- protocolNotes: Cell cytotoxicity 50 assay (CC50), MB200 cells, cell titer glo
- Type: cell-based
- testSettings: 72 h

Some compounds with known CC50 results, for comparison:
[[record]]
compound = "O=C(CCCN1C(=O)CCC1=O)Nc1nc2ccccc2s1"
targetofassay = "MB200 cells"
result = "> 10 µM"

[[record]]
compound = "O=C(CCCN1C(=O)CCC1=O)N[C@@H]1CC[C@H](c2nc3ccccc3s2)C1"
targetofassay = "MB200 cells"
result = "> 10 µM"

[[record]]
compound = "O=C(CCCN1C(=O)CCC1=O)N[C@H]1CC[C@H](c2nc3ccccc3s2)C1"
targetofassay = "MB200 cells"
result = "> 10 µM"


As a next step, examine the compound that follows.
input: Request the reported CC50 associated with O=C(CCC1CCC(=O)N1)Nc1ccc(-c2nc3ccccc3s2)cc1 (stereo not shown)
output: 1 to 10 µM
